Molecular target: CDK2/cyclin A (Homo sapiens, UniProt P24941)
Construct: cyclin A: E. coli
Assay: Inhibition of CDK2/Cyclin A Retinoblastoma Kinase Activity
Details: apparent Ki
Entries and their pKi
Lab note — pKi values are minus log10 of concentrations in M.

As a guide, the following entries are already answered.
molecule=C(=C\c1n[nH]c2ccc(-c3cncc4ccccc34)cc12)/c1ccccc1 endpoint=pKi value_measured=7.82
molecule=Cc1c(-c2ccc3[nH]nc(-c4nc5ccccc5[nH]4)c3c2)cncc1-c1c[nH]cn1 endpoint=pKi value_measured=9.00

Provide the reported pKi (system: CDK2/cyclin A (Homo sapiens, UniProt P24941)) for `COc1cccc(-c2ccc3[nH]nc(-c4nc5ccccc5[nH]4)c3c2)c1C` 6.17

Identify measured pKi obtained with CDK2/cyclin A (Homo sapiens, UniProt P24941) for `Cc1c(CNC2CCCC2)cncc1-c1ccc2[nH]nc(-c3nc4ccccc4[nH]3)c2c1` . 8.57

Answer briefly: pKi recorded on CDK2/cyclin A (Homo sapiens, UniProt P24941) for `Cc1cncc(-c2ccc3[nH]nc(-c4nc5ccccc5[nH]4)c3c2)c1C` 8.85

Name the recorded pKi of `Cc1c(C(N)=O)cncc1-c1ccc2[nH]nc(-c3nc4ccccc4[nH]3)c2c1` , assay system CDK2/cyclin A (Homo sapiens, UniProt P24941). 7.85

Report measured pKi on CDK2/cyclin A (Homo sapiens, UniProt P24941); entry: `COc1ccc(-c2ccc3[nH]nc(-c4nc5ccccc5[nH]4)c3c2)cc1` 6.10

* * *

Target: CDK2/cyclin A (Homo sapiens, UniProt P24941)
Construct: cyclin A: E. coli
Test: Inhibition of CDK2/Cyclin A Retinoblastoma Kinase Activity
Details: apparent Ki
Description: Cyclin-dependent kinase activity was measured by quantifying the enzyme-catalyzed, time-dependent incorporation of radioactive phosphate from [^32P]ATP or [^33P]ATP into a protein substrate. […] The phosphorylated substrate was then captured on a nitrocellulose or phosphocellulose membrane using a 96-well filtration manifold, and unincorporated radioactivity was removed by repeated washing with 0.85% phosphoric acid. Radioactivity was quantified by exposing the dried membranes to a phosphorimager. […]
# Ki per record follows
Supply the numeric figure in nM, leaving out any unit text.

Sample answers from the record:
compound_structure=COc1c(O)cccc1-c1ccc2[nH]nc(-c3nc4ccccc4[nH]3)c2c1 value_measured=100
compound_structure=CCN(CC)Cc1cccc2[nH]c(-c3n[nH]c4ccc(-c5cncc6ccccc56)cc34)nc12 value_measured=1
compound_structure=Cc1c(CNc2cccnc2)cncc1-c1ccc2[nH]nc(-c3nc4ccccc4[nH]3)c2c1 value_measured=0.61
compound_structure=Cc1c(CNCCO)cncc1-c1ccc2[nH]nc(-c3nc4ccccc4[nH]3)c2c1 value_measured=0.94
compound_structure=Cc1c(O)cccc1-c1ccc2[nH]nc(-c3nc4c(O)cccc4[nH]3)c2c1 value_measured=49

Return value of Ki for input `CCc1cncc(-c2ccc3[nH]nc(/C=C/c4ccccc4)c3c2)c1Cl` , no commentary. 28

Give reported Ki value for `Cc1c(-c2ccncc2)cncc1-c1ccc2[nH]nc(-c3nc4ccccc4[nH]3)c2c1` 0.29

Supply recorded Ki for `CN(C)Cc1cccc2[nH]c(-c3n[nH]c4ccc(-c5cncc6ccccc56)cc34)nc12` here. 0.21

* * *

Biological target: LCK tyrosine kinase (Homo sapiens, UniProt P06239, C224D/P223M)
Construct: starting from amino acid 223 to the end of the protein at amino acid 509; made in house; host or cells: insect cells
Sequence (P06239 223-509 P223M/C224D): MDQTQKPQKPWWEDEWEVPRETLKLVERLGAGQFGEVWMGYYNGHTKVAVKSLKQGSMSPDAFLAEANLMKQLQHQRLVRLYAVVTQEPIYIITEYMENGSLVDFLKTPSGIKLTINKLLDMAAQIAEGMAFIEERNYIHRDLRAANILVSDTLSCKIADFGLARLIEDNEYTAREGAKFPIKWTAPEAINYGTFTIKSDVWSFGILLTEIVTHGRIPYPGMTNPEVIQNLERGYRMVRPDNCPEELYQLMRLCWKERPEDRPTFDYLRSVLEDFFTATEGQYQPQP
Test: Inhibition of phosphorylated LCK tyrosine kinase activity
Type: biochemical
Conditions: read-out: LCK % Inhib. at 1 μM
ENDPOINT: inhibition at 1 µM (%)
Report as a plain number; the unit % is understood.

Look over these answered cases.
molecule="Cc1c(O)cccc1-c1ccc2[nH]nc(-c3nc4c(O)cccc4[nH]3)c2c1 [Example 21]" value_measured=23
molecule="Fc1ccccc1-c1ccc2[nH]nc(-c3nc4ccccc4[nH]3)c2c1 [Example 6]" value_measured=11
molecule="Cc1c(O)cccc1-c1ccc2[nH]nc(/C=C/c3ccccc3)c2c1 [15′]" value_measured=17

Pending molecule:
Answer with reported inhibition at 1 µM of Cc1c(O)cccc1-c1ccc2[nH]nc(-c3nc4ccccc4[nH]3)c2c1 [10′] 21

* * *

Tested on: HCT 116 cell line
Assay: Inhibition of Cell Growth (MTT tetrazolium salt assay)
Type: cell-based
Conditions: Homo sapiens; HCT 116, MTT, 50% inhibition of growth; read-out: HCT 116 IC50
ENDPOINT: log10 of IC50 (log10 of the value in nM)
Annotation: log10 of IC50, nM basis.

molecule=CN1CCN(c2ccc3[nH]c(-c4n[nH]c5ccc(-c6cncc7ccccc67)cc45)nc3c2)CC1 value_measured=1.85

Print HCT 116 cell line log10 of IC50 for `CC(=O)N1CCCc2c(-c3ccc4[nH]nc(-c5nc6ccccc6[nH]5)c4c3)cncc21` . 2.63

Write down the reported log10 of IC50 (system: HCT 116 cell line) of `CC(=O)Nc1cccc2c(-c3ccc4[nH]nc(-c5nc6ccccc6[nH]5)c4c3)cncc12` 2.68

Please look at `Cc1c(CNCCO)cncc1-c1ccc2[nH]nc(-c3nc4ccccc4[nH]3)c2c1` and tell me its recorded log10 of IC50 on HCT 116 cell line. 2.18

Answer with log10 of IC50 of `Cc1c(CO)cncc1-c1ccc2[nH]nc(-c3nc4ccccc4[nH]3)c2c1` measured for HCT 116 cell line. 2.18

Report log10 of IC50 under test system HCT 116 cell line for `c1ccc2c(-c3ccc4[nH]nc(-c5nc6ccccc6[nH]5)c4c3)cncc2c1` . 2.52

* * *

Tested on: HCT 116 cell line
Assay: Inhibition of Cell Growth (MTT tetrazolium salt assay)
Assay type: cell-based
Details: Homo sapiens; HCT 116, MTT, 50% inhibition of growth; read-out: HCT 116 IC50
ENDPOINT: pIC50
// pIC50 is dimensionless: -log10 of concentration (M)

molecule="Clc1ccncc1-c1ccc2[nH]nc(-c3nc4ccccc4[nH]3)c2c1 [Example 52]" endpoint=pIC50 value_measured=6.30
molecule="Fc1ccccc1-c1ccc2[nH]nc(-c3nc4ccccc4[nH]3)c2c1 [Example 6]" endpoint=pIC50 value_measured=5.22
molecule="Cc1c(CNC2CCCC2)cncc1-c1ccc2[nH]nc(-c3nc4ccccc4[nH]3)c2c1 [Example 92]" endpoint=pIC50 value_measured=6.74
molecule="CNCc1cccc2[nH]c(-c3n[nH]c4ccc(-c5cncc6ccccc56)cc34)nc12 [Example 32]" endpoint=pIC50 value_measured=7.07

Please indicate pIC50 recorded for c1ccc2c(-c3ccc4[nH]nc(-c5nc6c(CN7CCCC7)cccc6[nH]5)c4c3)cncc2c1 [Example 33] 7.26

Input CS(=O)(=O)Nc1ccc2nc(-c3n[nH]c4ccc(-c5cncc6ccccc56)cc34)[nH]c2c1 [Example 70] , output reported pIC50. 6.74

* * *

Target: CDK4/cyclin D3 (Homo sapiens, UniProt P11802)
Sequence (P11802 2-303 limits assumed): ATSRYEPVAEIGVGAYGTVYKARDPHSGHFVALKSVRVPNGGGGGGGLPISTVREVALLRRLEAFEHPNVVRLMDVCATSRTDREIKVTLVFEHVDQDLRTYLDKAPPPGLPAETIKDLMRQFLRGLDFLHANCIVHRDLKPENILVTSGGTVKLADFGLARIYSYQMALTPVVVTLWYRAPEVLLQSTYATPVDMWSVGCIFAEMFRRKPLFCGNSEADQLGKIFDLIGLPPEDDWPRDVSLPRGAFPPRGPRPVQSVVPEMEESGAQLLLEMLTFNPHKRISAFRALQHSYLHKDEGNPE
Sequence (P30281 1-264 limits assumed, further chain): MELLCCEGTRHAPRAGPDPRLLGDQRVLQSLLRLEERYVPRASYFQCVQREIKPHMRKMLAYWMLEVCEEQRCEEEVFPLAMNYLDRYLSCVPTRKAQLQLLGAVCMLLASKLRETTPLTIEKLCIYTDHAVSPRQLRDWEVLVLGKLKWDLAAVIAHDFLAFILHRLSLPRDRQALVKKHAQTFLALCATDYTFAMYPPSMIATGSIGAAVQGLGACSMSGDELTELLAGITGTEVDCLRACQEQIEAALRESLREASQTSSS
Assay: Inhibition of CDK4/Cyclin D Retinoblastoma Kinase Activity
Conditions: apparent Ki
Procedure: Cyclin-dependent kinase activity was measured by quantifying the enzyme-catalyzed, time-dependent incorporation of radioactive phosphate from [^32P]ATP or [^33P]ATP into a protein substrate. […] The phosphorylated substrate was then captured on a nitrocellulose or phosphocellulose membrane using a 96-well filtration manifold, and unincorporated radioactivity was removed by repeated washing with 0.85% phosphoric acid. Radioactivity was quantified by exposing the dried membranes to a phosphorimager. […]
Classify by Ki. Ranges: lo = under 3 nM, med = from 3 nM up to 9 nM, hi = 9 nM and over

State the class of the molecule shown: `Fc1cccc2cncc(-c3ccc4[nH]nc(/C=C/c5ccccc5)c4c3)c12` hi

Could you place `c1ccc(CNc2ccc3[nH]nc(-c4ccc[nH]4)c3c2)cc1` in its proper category? Many thanks. hi

Using the reported Ki, which band applies to `CNCc1cccc2[nH]c(-c3n[nH]c4ccc(-c5cncc6ccccc56)cc34)nc12` ? lo

Just checking, what class would you give `Cc1c(-c2ccc3[nH]nc(-c4nc5ccccc5[nH]4)c3c2)cncc1-c1c[nH]cn1` here? lo

* * *

Tested on: HCT 116 cell line
Test: Inhibition of Cell Growth (MTT tetrazolium salt assay)
Type: cell-based
Settings: Homo sapiens, HCT-116, read-out: HCT 116 IC50 (uM)
Catalogue of IC50 readings, one per entry.
Note: a bare number is incomplete; add the unit.

Below, 4 compounds whose answers are already recorded.
compound_structure=CC(C)NCc1cccc2[nH]c(-c3n[nH]c4ccc(-c5cncc6ccccc56)cc34)nc12 value_measured="0.029 µM"
compound_structure=c1ccc(CNc2cccc3c(-c4ccc5[nH]nc(-c6nc7ccccc7[nH]6)c5c4)cncc23)cc1 value_measured="2 µM"
compound_structure=Cc1nc(-c2n[nH]c3ccc(-c4cncc5ccccc45)cc23)[nH]c1-c1ccccc1 value_measured="2 µM"
compound_structure=Cc1c(CNC(C)C)cncc1-c1ccc2[nH]nc(-c3nc4ccccc4[nH]3)c2c1 value_measured="0.085 µM"

Now for a further compound.
Report IC50 for `CCNCc1cccc2[nH]c(-c3n[nH]c4ccc(-c5cncc6ccccc56)cc34)nc12` 0.041 µM

Entry source: patent US7232912B2
